- assayed_target: Torsin-1A (Homo sapiens) (UniProt O14656)
- Sequence (O14656 whole entry, looked up): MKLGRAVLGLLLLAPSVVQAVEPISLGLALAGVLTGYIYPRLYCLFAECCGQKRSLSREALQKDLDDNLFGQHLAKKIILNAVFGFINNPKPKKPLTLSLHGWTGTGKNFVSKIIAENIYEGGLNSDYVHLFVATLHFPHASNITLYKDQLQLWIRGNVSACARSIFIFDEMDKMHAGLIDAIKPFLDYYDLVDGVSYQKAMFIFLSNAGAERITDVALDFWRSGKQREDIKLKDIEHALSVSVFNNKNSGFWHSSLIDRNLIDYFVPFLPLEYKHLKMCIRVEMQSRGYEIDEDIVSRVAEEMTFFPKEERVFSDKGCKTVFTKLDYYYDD
- test_protocol: TOR1A wild-type binding on microarray – cell lysate, small-molecule microarray, lysate, 635/667 nm, primary screen (AID 1149)
- condition_label: COS7 hTOR1A-WT lysate, 635 nm fluorescence, higher = more signal
readout: composite z-score

1. O=C1C[C@]2(c3ccc([N+](=O)[O-])cc3)C(=O)N(C3CC3)c3cc(CO)ccc3[C@H]2N1C1CCCCC1
-0.145
2. COc1ccc([Si](C)(C)[C@@H]2[C@@H](CC(=O)N3CCC[C@H]3CO)O[C@]3(C(=O)N(Cc4ccc(N5CCOC5=O)cc4)c4ccccc43)[C@H]2C)cc1
0.515
3. C=C1C(=O)C=C2CN(C(=O)c3ccccc3)[C@@](Cc3ccc(OC)cc3)(C(=O)OC)[C@@H]12
0.124
4. NC(=O)N1C(=O)C2C(C1=O)C1C=C(CCCO)C2C(c2ccc(CN3CCCC3)cc2)N1Cc1cc2c(cc1Br)OCO2 (configuration not stated)
0.283
5. COc1ccc(C(O)C2C=CC3C(=O)N(c4ccccc4)C(=O)C3N2Nc2ccc([N+](=O)[O-])cc2)c2ccccc12 (configuration not stated)
0.771
6. COCCOC(=O)N1C(=O)[C@@]2(c3cc(C#CCNC(N)=O)ccc31)[C@H](C(=O)Nc1nc3ccccc3s1)[C@H]1C(=O)O[C@H](c3ccccc3)[C@H](c3ccccc3)N1[C@@H]2c1ccccc1OCCO
0.508
7. [N-]=[N+]=Nc1ccccc1C[C@]1(C(=O)N2CCOCC2)N=C(c2ccc(OCCCO)cc2)O[C@H]1c1ccccc1N=[N+]=[N-]
1.32

====

- Test system: Noggin (protein binding on small-molecule microarray)
- test_protocol: small molecules binding Noggin protein – biochemical, 635/667 nm fluorescence, primary screen (AID 1095);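 also: score merges 667 nm feature fluorescence with signal to noise over triplicate slides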
- condition_label: 635 nm fluorescence, higher = more signal
readout: composite z-score

1) COC(=O)[C@@]1(Cc2ccccc2)[C@H]2c3cc(C(=O)N(C)C)n(CCO)c3C[C@H]2CN1C(=O)c1ccccc1
-0.779
2) C=CCC(OC(C)=O)[C@@H]1[C@@H](N(Cc2ccc(-c3cccc(C(F)(F)F)c3)o2)C(=O)c2ccc(-c3ccccc3)cc2)c2cc(OCCCO)ccc2N1C(=O)c1ccc2ccccc2c1 (stereo partly specified)
0.28
3) CN1C(=O)C2C(C3CC3)C=C3CN(Cc4cccc(Cl)c4)[C@@H]([C@@H](O)Cc4ccccc4)C3C2C1=O (stereo partly specified)
1.23
4) COCCOC(=O)N1C(=O)[C@@]2(c3cc(C#CCCO)ccc31)[C@H](c1ccccc1OCCO)N1[C@H](c3ccccc3)[C@H](c3ccccc3)OC(=O)[C@H]1[C@@H]2C(N)=O
1.6
5) CC[C@@H]1C=C(C(=O)O)[C@H](c2ccc(OC)cc2)N1S(=O)(=O)c1ccc(C)cc1
-0.199
6) C=CCC(OC(C)=O)[C@@H]1[C@@H](N(Cc2cccc3ccccc23)C(=O)Cc2ccc(OC)cc2)c2cc(OCCCO)ccc2N1C(=O)c1ccc2ccccc2c1 (stereo partly specified)
0.115

====

- test_protocol: probe aNog binding to arrayed compounds – biochemical, biotinylated probe, 635/667 nm fluorescence, primary screen (AID 1115);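 also: probe is biotinylated aNog protein used at 0.15 µg/mL for 1 h at 4 C; z-score combines 667 nm fluorescence of each spot with its signal to noise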
- condition_label: small-molecule microarray, higher = more signal
readout: composite z-score

1) Cc1ccc(N2C(=O)c3ccccc3[C@](C)(C(=O)NCCCN(C)C)[C@@H]2c2ccc(CO)cc2)nc1
-0.348
2) C=CC[C@@]1(C(=O)N(C)C)N=C(c2ccc(OCCCO)cc2)O[C@@H]1c1ccccc1CN=[N+]=[N-]
0.0919
3) Cc1ccc(S[C@]2(C(=O)NCCCN(C)C)CC(=O)N(Cc3ccccc3C(F)(F)F)[C@@H]2c2ccc(CO)cc2I)cc1
1.27
4) COCCCNC(=O)[C@@]1(Sc2ccc(C)cc2)CC(=O)N(Cc2ccccc2C(F)(F)F)[C@@H]1c1ccc(CO)cc1I
0.595
